B1: Pistol ribozyme (parent)
chain: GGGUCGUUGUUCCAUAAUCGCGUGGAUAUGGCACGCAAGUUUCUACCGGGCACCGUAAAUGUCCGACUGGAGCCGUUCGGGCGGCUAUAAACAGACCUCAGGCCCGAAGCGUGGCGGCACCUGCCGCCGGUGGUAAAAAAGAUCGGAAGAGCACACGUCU

Variants of: B1
Test: aptazyme ON/OFF ratio, guanine; higher = stronger switching; co-transcriptional cleavage with and without guanine
I'd appreciate it if you could supply aptazyme ON/OFF ratio values for the items below.
Output: the number by itself.

What measured aptazyme ON/OFF ratio goes with U7A U8G G9C U10C C13G ?
1.1

What measured aptazyme ON/OFF ratio goes with U7G U8A G9A U10A U11A C12U ?
1.18

What measured aptazyme ON/OFF ratio goes with U7G U8G G9U U10C U11A ?
1.47

What measured aptazyme ON/OFF ratio goes with U8C G9A U10G U11C C12A C13G ?
1.1

What measured aptazyme ON/OFF ratio goes with G9A U10G C12G C13G ?
1.21

What measured aptazyme ON/OFF ratio goes with U8C G9U U10A U11G C12G C13G ?
1.12

What measured aptazyme ON/OFF ratio goes with U7G U11G C12A ?
1.11

What measured aptazyme ON/OFF ratio goes with U7A U8A G9A U11C C12A C13U ?
1.22

What measured aptazyme ON/OFF ratio goes with U7C U8C G9A U10C U11G C12U C13G ?
1.33

What measured aptazyme ON/OFF ratio goes with U8G G9U U10C U11C C12G C13G ?
1.1

What measured aptazyme ON/OFF ratio goes with U8A G9C U10C U11A C12G C13G ?
1.12

What measured aptazyme ON/OFF ratio goes with U7C U8A U10A U11G C12G C13U ?
1.24

What measured aptazyme ON/OFF ratio goes with U7G U8A G9C U11A C12U ?
1.03

What measured aptazyme ON/OFF ratio goes with U7A U8C G9A U10A U11G C12G C13G ?
1.31

What measured aptazyme ON/OFF ratio goes with U8G U10G C12U C13U ?
1.2

What measured aptazyme ON/OFF ratio goes with U7C U8A G9U U10A C12A ?
1.19

What measured aptazyme ON/OFF ratio goes with U7A U8A G9C U10A C12U ?
1.15

What measured aptazyme ON/OFF ratio goes with U7A U8C G9C U11G C12A C13G ?
1.31

What measured aptazyme ON/OFF ratio goes with U7C U8G G9A U10A C12G C13G ?
1.46

What measured aptazyme ON/OFF ratio goes with U7G U8A G9A U10C U11G C12U C13G ?
1.14

What measured aptazyme ON/OFF ratio goes with U7G U8C U10G C12U C13G ?
1.22

What measured aptazyme ON/OFF ratio goes with U7G U8A U10A C13G ?
1.44

What measured aptazyme ON/OFF ratio goes with U7G U8C G9C U10A U11A C12A C13G ?
1.09

What measured aptazyme ON/OFF ratio goes with U7G U8A G9U C12A ?
1.06

What measured aptazyme ON/OFF ratio goes with U8A G9C U11G C12G C13A ?
1.18

What measured aptazyme ON/OFF ratio goes with U7C U8G G9C U10C U11A C13A ?
1.21

What measured aptazyme ON/OFF ratio goes with U8G G9U U10G ?
1.07

What measured aptazyme ON/OFF ratio goes with U7G U8A G9C U10A C12U C13A ?
1.03

What measured aptazyme ON/OFF ratio goes with U7A U8C G9C U10G ?
1.01

What measured aptazyme ON/OFF ratio goes with U7C U8A G9A U10A U11G C12A ?
1.05

What measured aptazyme ON/OFF ratio goes with U7A U8A G9C ?
1.22

What measured aptazyme ON/OFF ratio goes with U7A U8C G9C U10G U11A C12U C13G ?
1.01

What measured aptazyme ON/OFF ratio goes with U7A U8G G9U U10C U11A C12A C13A ?
1.26

What measured aptazyme ON/OFF ratio goes with G9U U10G U11G C12U C13U ?
1.34

What measured aptazyme ON/OFF ratio goes with U7C U8G G9U U10C C13G ?
1.13

What measured aptazyme ON/OFF ratio goes with U7C U8A G9A U11A C12G C13A ?
1.15

What measured aptazyme ON/OFF ratio goes with G9A U11A C12A C13U ?
1.36

What measured aptazyme ON/OFF ratio goes with U8G G9U U10A U11G C12G ?
1.27

What measured aptazyme ON/OFF ratio goes with U7A G9C U10G U11G C12G C13U ?
1.16

What measured aptazyme ON/OFF ratio goes with U7A G9U U11C C12U C13U ?
1.26

What measured aptazyme ON/OFF ratio goes with U8C G9U U11A C12G C13G ?
1.12

What measured aptazyme ON/OFF ratio goes with U7A U8C G9A U10C U11G C12A ?
1.09

What measured aptazyme ON/OFF ratio goes with U7G U8G G9A U10C U11G C13A ?
1.27

What measured aptazyme ON/OFF ratio goes with U8C G9C U10A U11G C12U C13G ?
1.15

What measured aptazyme ON/OFF ratio goes with U7C U8A G9U U10A U11C C12A ?
1.15

What measured aptazyme ON/OFF ratio goes with U7C U8G G9U U10A C12G C13G ?
1.18

Reference source for all entries: the RNAGym collection of RNA variant scans (doi:10.1021/acssynbio.7b00057)
